Data provenance is paper PMC5869712.

test: Pharmacokinetics in Sprague Dawley rats; format: in vivo; settings: both sexes, Sprague Dawley, rat, iv 5.0 mg/kg, plasma
measuredAttribute: AUC(0-t) (ng·h/mL)
Answers are plain numbers, in ng·h/mL.

Input line: Need AUC(0-t) of C=CC(=O)N[C@@H]1CCCN(c2ncnc3[nH]ccc23)C1 , thanks.
Output line: 802

---

test: Pharmacokinetics in Sprague Dawley rats; format: in vivo; settings: both sexes, Sprague Dawley, rat, po 10 mg/kg, plasma
measuredAttribute: AUC(0-t) (ng·h/mL)
Numbers only, in ng·h/mL.

Input line: Need AUC(0-t) of C=CC(=O)N[C@@H]1CCCN(c2ncnc3[nH]ccc23)C1 , thanks.
Output line: 1160
